Target: T1, Recombinant mouse DDR2 ECD-Fc (R&D systems, Cat. No. 7479-DR-050) (mouse, UniProt Q62371 22-399, biotinylated)
T1 construct: Bought protein; not shown: Fc part of the bought fusion protein, not described
T1 sequence: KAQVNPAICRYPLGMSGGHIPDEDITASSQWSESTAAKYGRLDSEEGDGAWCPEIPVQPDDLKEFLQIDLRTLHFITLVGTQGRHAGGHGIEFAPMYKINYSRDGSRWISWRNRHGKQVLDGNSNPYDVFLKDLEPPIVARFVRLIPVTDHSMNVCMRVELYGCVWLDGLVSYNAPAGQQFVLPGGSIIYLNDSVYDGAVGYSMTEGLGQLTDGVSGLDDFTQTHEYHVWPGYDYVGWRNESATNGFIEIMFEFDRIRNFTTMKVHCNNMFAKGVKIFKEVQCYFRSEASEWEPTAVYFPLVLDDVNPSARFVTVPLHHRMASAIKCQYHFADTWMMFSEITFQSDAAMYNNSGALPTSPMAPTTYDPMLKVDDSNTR
Assay: Octet tandem binning on captured mouse DDR2 ECD-Fc; competitor Ab1 (bound first) DAB0069
The following binders are listed with their measured Octet response of Ab2 values.
// print number alone

DAB0045 (antibody, V domains shown, Variable regions from immunized rabbits) VH: QSVEESGGRLVTPGTPLTLTCTVSGFSLSSYSMGWVRQAPGKGLEYIGVINTSDSAYYASWAKGRFTISRTSTTVDLKMTSLTTEDTATYFCARAIGYYGSGWGACYFNLWGQGTLVTVSS VL: AIKMTQTPSSVSAAVGGTVTVNCQASEDIKSYLAWYQQKPGQPPKLLIYSASTLASGVSSRFKGSGSGTQFTLTISDLECADAATYYCQSYYGTSTTGEYNAFGGGTKVEIK	-0.001
DAB0048 (antibody, V domains shown, Variable regions from immunized rabbits) VH: QSVEESGGRLITPGTPLTLTCTASGFSLSIYYMIWVRQAPGKGLEWIGYIWSGSTTDYASWAKGRFTISKTSTTVDLKITSPTTEDTATYFCARVYAGYGYGSDLWGQGTLVTVSS VL: AAVLTQTPSPVSAAVGGTVSISCQSSQSVYNNNWLAWYQQKPGQPPKLLIYSASTLASGVPSRFKGSGSGTQFTLTISDVQCDDAATYYCAGGYSTNSDKNAFGGGTKVEIK	1.47
DAB0069 (antibody, V domains shown, Variable regions from immunized rabbits) VH: QSLEESGGRLVTPGTPLTLTCTASGFSLSNYYMQWVRQAPGKGLEWIGIVYPGSSAYYANWAKGRFTISKTSTTVDLKMTSLTTEDTATYFCAGSSNSVYSFNLWGQGTLVTVSS VL: AYDMTQTPSSVSAAVGGTVTIKCQASESIYRSLAWYQQKPGQPPKLLIYSASTLTSGVSSRFKGSGSGTEFTLTISDLECADAGTYYCQQGGSFSNIVNTFGGGTKVEIK	0
DAB0094 (antibody, V domains shown, Variable regions from immunized rabbits) VH: QSVEESGGRLVTPGTPLTLTCTVSGFSLSSYSVAWVRQAPGKGLEWIGYISYSGSTYYASWVNGRFTISKTSTTVDLKMTSLTASDTATYFCARDPGYSRDLWGQGTLVTVSS VL: DVVMTQTPSSVSEPVGGTVTIKCQASQSIGSYLSWYQQKPGQPPKLLIYRASTLASGVSSRFKGSGSGTEFTLTINGLECADAAIYYCQSSYVGVSHGSFGGGTKVEIK	1.3

What the record says about DAB0060 (antibody, V domains shown, Variable regions from immunized rabbits) VH: QSVEESGGRLVTPGTALTLTCTASGFSLSSYDMSWVRQAPGEGLEWIGTIFTEGSTSCASWVKGRFTISRTSTTVDLKITSPTTEDTATYFCVRGTTSNRLWGQGTLVTVSS VL: DVVMTQTPASVEAVVGATVTIRCQASESITNYLSWYQQKPGQPPKVLIYYASTLESGVPSRFKGSGSGTQFTLTISDLECADAATYYCQSNYFSSSYSYGNTFGGGTKVEIK : Octet response of Ab2 is 0.615

What the record says about DAB0065 (antibody, V domains shown, Variable regions from immunized rabbits) VH: QSVEESGGRLVTPGTPLTLTCTVSGFSLSTSAMSWVRQAPGKGLEWIGMITYGGSGSTWYASWANGRFTISKTSTTVTLKMTSPTTEDTASYFCARVYGTIGSNFYSIYSFNLWGQGTLVTVSS VL: AAVLTQTPSPVSAAVGGTVSISCQSSKSVYNSNYLSWYQQKPGQPPKLLIYYTSALASGVSSRFKGSGSGTRFTLTISDVQCDDAATYYCAGGYSSSSDNGFGGGTKVEIK : Octet response of Ab2 is 0.0322

Recorded values, source patent US20240270853A1.
